test_target: Mitogen-activated protein kinase 9 (Homo sapiens, UniProt P45984)
Sequence (P45984 whole entry, the tested form may be a part): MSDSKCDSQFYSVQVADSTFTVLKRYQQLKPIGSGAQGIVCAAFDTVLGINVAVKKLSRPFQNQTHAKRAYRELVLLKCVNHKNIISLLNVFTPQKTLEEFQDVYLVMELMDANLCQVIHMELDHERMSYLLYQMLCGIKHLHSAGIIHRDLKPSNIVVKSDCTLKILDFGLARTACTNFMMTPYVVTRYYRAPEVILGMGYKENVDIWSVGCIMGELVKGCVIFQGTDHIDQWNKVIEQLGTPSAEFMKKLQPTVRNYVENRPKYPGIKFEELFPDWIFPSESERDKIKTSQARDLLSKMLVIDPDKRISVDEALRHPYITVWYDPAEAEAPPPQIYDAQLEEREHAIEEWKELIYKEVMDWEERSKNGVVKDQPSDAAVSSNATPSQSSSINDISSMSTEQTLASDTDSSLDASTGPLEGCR
assay_method_text: Inhibition of His6-tagged JNK2 (unknown origin) assessed as reduction in c-Jun phosphorylation using GST-c-Jun (1 to 79 residues) and [gamma32P]ATP incubated for 1 hr by scintillation counting assay
property_label: IC50

Given O=C(Nc1cccc(-c2n[nH]c3ccc(-c4nc[nH]n4)cc23)c1)C1CCCC1 , respond with its IC50. 1 to 10 µM

Please list IC50 recorded for the molecule O=C(Nc1cccc(-c2n[nH]c3ccc(-c4nc[nH]n4)cc23)c1)C(O)c1ccccc1 (stereo not given) 0.5 to 10 µM

Using the record for O=C(O)c1ccc(C(=O)Nc2ccc3[nH]nc(-c4ccccc4)c3c2)cc1 , state its measured IC50. 1 to 10 µM

Note down IC50 recorded for CN(C)CCOc1cccc(-c2n[nH]c3ccc(-c4nnn[nH]4)cc23)c1 1 to 10 µM

Fill in reported IC50 for this entry: NC(=O)c1ccc2[nH]nc(-c3cccc(NC(=O)Cc4ccc(Cl)cc4Cl)c3)c2c1 1 to 10 µM

Retrieve IC50 measured for COc1ccc(-c2n[nH]c3ccc(-c4n[nH]c(CN(C)C)n4)cc23)cc1 and print it. 0.5 to 10 µM

Specify reported IC50 for the molecule shown: Fc1ccc(-c2n[nH]c3ccc(-c4nc5ccccc5[nH]4)cc23)cc1 ≤ 10 µM

Assign IC50 to the following record: Cc1ccc2[nH]nc(-c3ccccc3)c2c1 ≤ 10 µM

Answer with the recorded IC50 of O=C(c1ccc2[nH]nc(-c3ccc(F)cc3)c2c1)N1CCNCC1 only. ≤ 10 µM

For the molecule O=C(Nc1cccc(-c2n[nH]c3ccc(-c4nc[nH]n4)cc23)c1)c1ccoc1 , give its measured IC50 value. 0.5 to 10 µM

---

Please provide measured IC50 for the entries that follow.
test_target: Mitogen-activated protein kinase 9 (Homo sapiens)
assay_method_text: Inhibition of His6-tagged JNK2 (unknown origin) assessed as reduction in c-Jun phosphorylation using GST-c-Jun (1 to 79 residues) and [gamma32P]ATP incubated for 1 hr by scintillation counting assay

Item C[C@H](NC(=O)c1cccc(-c2n[nH]c3ccc(-c4ncn[nH]4)cc23)c1)c1ccccc1 : provide IC50 1 to 10 µM

Output measured IC50 for this item: COc1ccc(/C=C/c2n[nH]c3ccc(-c4nc[nH]n4)cc23)cc1 1 to 10 µM

Annotate the molecule Cc1ccc(-c2n[nH]c3ccc(-c4nnc[nH]4)cc23)cc1 with its measured IC50. 1 to 10 µM

Provide only the value of recorded IC50 for NNC(=O)c1ccc2[nH]nc(-c3ccc(F)cc3)c2c1 1 to 10 µM

State its IC50: CC(C)c1ccc(-c2n[nH]c3ccc(-c4nnn[nH]4)cc23)cc1 1 to 10 µM

// fetch IC50 given entry O=C(O)c1cccc(C(=O)Nc2ccc3[nH]nc(-c4ccc(F)cc4)c3c2)c1 1 to 10 µM

Specify measured IC50 for COc1ccc2cc(-c3n[nH]c4ccc(-c5n[nH]c(CN6CCCC6)n5)cc34)ccc2c1 . 0.5 to 10 µM

Using the record for Nc1ccc2[nH]nc(-c3ccc(F)cc3)c2c1 , state its measured IC50. ≤ 10 µM

Specify measured IC50 for CS(=O)(=O)c1ccc(-c2n[nH]c3ccc(-c4ncn[nH]4)cc23)cc1 . 1 to 10 µM

Read the entry Nc1cccc(-c2n[nH]c3ccc(-c4nnn[nH]4)cc23)c1 and write its reported IC50. 0.5 to 10 µM

Hello, the source for this data is ChEMBL document CHEMBL3882725, in case you need it.
